Tested on: SR leukemia
ASSAY_OVERVIEW: NCI tumour cell line growth inhibition, 48 h
MEASURED_PROPERTY: TGI (µM)

molecule=O=C1OC(c2ccccc2)=N/C1=C\c1cccnc1 comparative_sign=> reported=100
molecule=CC(=O)N[C@@H](Cc1ccc(OP(=O)(O)O)cc1)C(=O)N[C@H]1CCC(=O)N2CCC[C@@H](C(=O)NCc3ccc(Cl)cc3)N2C1=O comparative_sign=> reported=25
molecule=CCNC(=O)[C@@H]1CCCN2C(=O)CC[C@H](NC(=O)[C@H](Cc3ccc(OP(=O)(O)O)cc3)NC(C)=O)C(=O)N12 comparative_sign=> reported=25
molecule=FC(F)(F)Oc1cccc(-c2cnc3ccc(-c4ccncc4)nn23)c1 comparative_sign== reported=11.8
molecule=O=C(Nc1ccccc1-c1n[nH]c(=S)[nH]c1=O)C(F)(F)F comparative_sign=> reported=100
molecule=NCCSc1nc2ccccc2s1 comparative_sign== reported=79.5
molecule=C/C(=N\NC(=O)c1sc(=S)n(C)c1N)c1cc2ccccc2o1 comparative_sign== reported=22
molecule=O=C(Nc1ccc(Cl)c(Cl)c1)c1cccc(NC2=C(Cl)C(=O)N(Cc3ccccc3)C2=O)c1 comparative_sign== reported=68
molecule="CCCCCC(C)(C)CCC(=O)OC1OC(COC2OC(COC3OC(CO)C(O)C(O)C3O)C(O)C(O)C2O)C(O)C(O)C1O (configuration not stated)" comparative_sign=> reported=100
molecule="CC1CC(C)C(O)C(C2CC(CC(=O)NC3CCCCC3)CC(=O)O2)C1 (configuration not stated)" comparative_sign=> reported=100
molecule=COc1cc(-c2cn(S(=O)(=O)c3ccc(C)cc3)c3ccccc23)nc(-c2cn(S(=O)(=O)c3ccc(C)cc3)c3ccccc23)n1 comparative_sign=> reported=100
molecule=Nc1c(C(=O)c2cccc(CCCN3CCOCC3)c2)cnn1-c1ccc(F)cc1 comparative_sign=> reported=25
molecule=N#CN=C(N)c1sc2nc3c(c(-c4ccc(Br)cc4)c2c1N)CCCC3 comparative_sign== reported=50.3
molecule=ON/N=C/c1cc2c(cc1Br)OCO2 comparative_sign=> reported=386
molecule=Cc1ccc(S(=O)(=O)c2c(N)c3nc4ccccc4n3c3nc4ccccc4nc23)cc1 comparative_sign=> reported=100
molecule=COc1cc(C(=O)/C=C/c2c(C)n([O-])c3ccc(C)cc3[n+]2=O)cc(OC)c1OC comparative_sign== reported=7.42
molecule="C=CCN1CCC(OC(=O)C(O)(C#CC)C2CCCC2)CC1 (configuration not stated)" comparative_sign=> reported=100
molecule=CN(C)c1ccc(/C=c2/c3ccccc3n3c2c2ccccc2[n+]3C)cc1 comparative_sign== reported=1.98
molecule=CC(C)[C@]12O[C@H]1[C@@H]1O[C@]13[C@]1(O[C@H]1C[C@H]1C4=C(CC[C@@]13C)C(=O)OC4)[C@@H]2O comparative_sign== reported=0.0488
molecule=CC(C)(C)NNC(=O)/C(=C/c1ccc([N+](=O)[O-])cc1)NC(=O)c1ccccc1 comparative_sign== reported=46.4
molecule="Cc1cc2nc(C(C)C(=O)c3ccc(Cl)cc3)c(=O)[nH]c2cc1C (configuration not stated)" comparative_sign== reported=97.6
molecule=O=C(NC1CCN(Cc2ccccc2)CC1)c1cc(-c2ccncc2)nc2ccc(Cl)cc12 comparative_sign== reported=34.8

----------
Tested on: SR leukemia
ASSAY_OVERVIEW: NCI tumour cell line growth inhibition, 48 h; in the data active = GI50 below about 0.43 µM; inactive = the rest
Outcomes: active, inactive

compound=CC1(C)N=C(N)N=C(N)N1c1cccc(CCCCc2cccc(S(=O)(=O)F)c2)c1 label=active
compound=Cn1cc(-c2ccc3c(Nc4cccc(NC(=O)Nc5cccc(F)c5)c4)ncnc3c2)cn1 label=inactive
compound=COc1ccc(-c2cc(-c3cc(Cl)ccc3Cl)nc3n[nH]c(N)c23)cc1 label=inactive
compound=CCCCON(OC(=O)c1ccccc1)C(=O)c1ccccc1 label=inactive
compound=CC(=O)N[C@@H](Cc1ccc(OP(=O)(O)O)cc1)C(=O)N[C@H]1CCC(=O)N2CCC[C@@H](C(=O)NCc3ccc(Cl)cc3)N2C1=O label=inactive
compound="COc1ccc(C2CC(c3cc(OC)c(OC)c(OC)c3)=NO2)cc1OCCCCOc1cc2c(cc1OC)C(=O)N1CCC[C@H]1C=N2 (some centres undefined)" label=inactive
compound=CCN(CC)CCOCC[C@H]1CC[C@H]2[C@@H]3[C@H](C)Cc4cc(OS(N)(=O)=O)ccc4[C@H]3CC[C@]12C label=active
compound="Cc1ccc2c(c1)C(C)Cc1c(ncnc1-n1cnc3ccccc31)N2C (centres undefined)" label=active
compound=Nc1c(C(=O)c2cccc(CCCN3CCOCC3)c2)cnn1-c1ccc(F)cc1 label=inactive
